pIC50: −log10 of the molar value.
// note: pIC50 values for Tyrosine-protein kinase Lck (Homo sapiens, UniProt P06239) were reported in different studies

moleculeSmiles | resultModifier | pIC50
COc1cc(-c2cc(=O)c3ccc(O)c(O)c3o2)cc(OC)c1O | = | 3.92
COc1ccccc1C(=O)Nc1ccc(C)c(C(=O)Nc2cnc(Nc3ccc(N4CCN(C)CC4)cc3)nc2)c1 | = | 8.30
Cc1cn2c(-c3cn[nH]c3)cnc2c(Nc2ccc(C(=O)N3CCCNCC3)c(Cl)c2)n1 | = | 7.15
CCN(CC)CCOc1ccc(Nc2cc(N(C)C(=O)Nc3cc(NC(=O)c4cc5ccccc5s4)ccc3C)ncn2)cc1 | = | 7.28
CC1(C)CNCCN1C(=O)c1ccc(Nc2nc(C3CC3)cn3c(-c4cn[nH]c4)cnc23)cc1Cl | = | 6.74
CC(C)(C)c1nnc2ccc(-c3ocnc3-c3ccc(F)cc3F)cn12 | < | 5.00
Cc1cccc(C)c1Nc1nc2ccccc2n2cncc12 | = | 7.80
CC1=CC(=O)C=C(C[C@]2(C)[C@H]3CCC(=C(C)C)[C@@H](CCC(=O)O)[C@]3(C)CC[C@H]2C)C1=O | = | 3.73
COc1cc2nccc(Oc3ccc4c(C(=O)NCC5CC5)cccc4c3)c2cc1OC | = | 5.96
